These entries and their values trace back to PubChem BioAssay AID1851.

Target: Cytochrome P450 3A4 (Homo sapiens) (UniProt P08684)
Sequence (P08684 whole entry, looked up): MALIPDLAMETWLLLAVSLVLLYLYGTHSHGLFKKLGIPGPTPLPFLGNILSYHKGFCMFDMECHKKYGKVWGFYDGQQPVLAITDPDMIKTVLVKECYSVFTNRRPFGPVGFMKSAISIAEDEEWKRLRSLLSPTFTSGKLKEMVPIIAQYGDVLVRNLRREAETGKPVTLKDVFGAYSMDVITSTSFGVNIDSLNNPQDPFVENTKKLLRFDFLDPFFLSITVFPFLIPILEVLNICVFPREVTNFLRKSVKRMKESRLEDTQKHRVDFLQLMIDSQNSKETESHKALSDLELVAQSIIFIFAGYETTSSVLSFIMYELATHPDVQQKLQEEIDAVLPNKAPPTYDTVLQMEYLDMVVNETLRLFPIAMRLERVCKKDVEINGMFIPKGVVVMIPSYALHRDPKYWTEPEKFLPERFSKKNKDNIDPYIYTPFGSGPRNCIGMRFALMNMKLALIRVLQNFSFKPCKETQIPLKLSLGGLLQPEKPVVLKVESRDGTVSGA
Assay: Cytochrome panel assay with activity outcomes
Details: recombinant CYP, pro-luciferin dealkylation, luminescence, p450-cyp3a4; series mostly up to 57.1 µM
Screen size: about 16,000 compounds; about 5,100 (32%) were called active. Roughly 25% stayed inconclusive and do not appear here. Calls follow the shape of the dose curve; as a rule, active = well fitted curve in the direction sought with a large enough effect; inconclusive = small, poorly fitted or top-dose-only effect, or effect the other way; inactive = no such curve, though single readings can be large or run the other way. This is one part of the list.
Your response should consist of one outcome taken from active, inactive

Some solved entries appear below for comparison.
COCc1c(C(=O)OCC(=O)N2c3ccccc3NC(=O)C2(C)C)oc2ccccc12; inactive
CCNc1ncc2nc(-c3ccccc3)c(=O)n(C)c2n1; inactive
COCCn1c(=O)c(-c2cc(F)cc(F)c2)nc2cnc(N(C)C)nc21; inactive
O=C(c1ccc2c(=O)n(Cc3ccco3)c(=S)[nH]c2c1)N1CCN(c2ccccc2)CC1; active
C(=N/Nc1nnc2c(n1)[nH]c1ccccc12)/c1cccnc1; active

### Prompt Recorded test call requested for FC(F)(F)c1ccccc1-c1nc(NCc2cccnc2)c2ccccc2n1
### Response active

### Prompt Each compound tested received a call. Report the one for C/C(CCc1ccc2c(c1)OCO2)=N\N=C1\NC(=O)CC(C(=O)Nc2ccccc2)S1 (configuration not stated) .
### Response active

### Prompt Called result for CCNc1ncc2nc(-c3ccccc3)c(=O)n(C3CC3)c2n1
### Response inactive

### Prompt Identify the outcome logged in this assay for the compound shown: CCN1C(=O)C(CC(=O)Nc2ccc(OC)cc2)N(Cc2cccnc2)C1=S (configuration not stated)
### Response active

### Prompt Dear colleague, could you share the recorded outcome for CCN1C(=O)C(CC(=O)Nc2ccc(OC)cc2)N(Cc2cccs2)C1=S (configuration not stated) when you have a moment?
### Response active

### Prompt What outcome does the record of this test show for CCN1C(=O)C(CC(=O)Nc2ccc(Br)cc2)N(CCCc2ccccc2)C1=S (configuration not stated) ?
### Response active

### Prompt Recorded call for CCNc1ncc2nc(C)c(=O)n(C3CC3)c2n1 ?
### Response inactive
